Attribution: ChEMBL document CHEMBL4619721

Target: Carbonic anhydrase 9 (Homo sapiens, UniProt Q16790)
REPORTED_METRIC: Kd (µM)
Use µM as the unit, but write only the number.

`COc1cc(/C=C/C(=O)O)ccc1OCc1cn(-c2cccc([N+](=O)[O-])c2)nn1` yielded Kd of 29

----------
// Carbonic anhydrase 9 (Homo sapiens, UniProt Q16790) log10(IC50) records
Record value = log10 of IC50 given in µM.

log10(IC50) reading for `COc1ccc(-n2cc(COc3ccc(/C=C/C(=O)O)cc3OC)nn2)cc1` : 0.68

Consider COc1cc(/C=C/C(=O)O)ccc1O [FERULATE] . Its measured log10(IC50) is 0.97

Input `COc1cc(/C=C/C(=O)O)ccc1OCc1cn(-c2ccccc2Cl)nn1` . Output log10(IC50): 1.16

Record `COc1cc(/C=C/C(=O)O)ccc1OCc1cn(-c2ccccc2OC)nn1` . Reported log10(IC50): 0.41

For reference, reported log10(IC50) for `COc1cc(/C=C/C(=O)O)ccc1OCc1cn(-c2ccc(C(=O)O)cc2)nn1` stands at -0.04

Alright, here's another molecule for you.
Given item `COc1cccc(-n2cc(COc3ccc(/C=C/C(=O)O)cc3OC)nn2)c1` , the value recorded as its log10(IC50) is 0.29
